- Tested on: RAW-Dual (murine macrophage reporter line)
- Protocol Notes: NF-kB reporter (SEAP) activity fold change vs agonist alone; higher = enhanced NF-kB activity
- Measurement Setup: modulator concentration 10 µM; agonist: MPLA […]
Label rule, in plain words: NF-kB reporter of 0.9 and up is true, under 0.9 is false.

[Q] Please check the record COc1ccc(-c2coc3cc(O)ccc3c2=O)cc1 and state if its NF-kB reporter is at or above 0.9.
[A] true

[Q] Same thing, different compound: COc1cc(O)c2c(=O)cc(-c3ccc(O)cc3)oc2c1
[A] true

[Q] Same thing, different compound: O=S(=O)(Nc1ccnc2ccccc12)c1ccccc1
[A] true

[Q] Same thing, different compound: O=C(Oc1ccc(C=Nc2ccc([N+](=O)[O-])cc2)cc1)c1ccccc1
[A] true

[Q] Same thing, different compound: N#CC1=C(NC(=S)NC(=O)c2ccccc2)c2ccccc2CC12CCCC2
[A] false

[Q] Same thing, different compound: CC(NCCC(c1ccccc1)c1ccccc1)c1ccccc1.Cl (stereo unspecified)
[A] false

[Q] Same thing, different compound: CNCCc1ccccn1.Cl.Cl
[A] true

[Q] Same thing, different compound: CCc1c(C)c2ccc(OCC(C)=O)c(C)c2oc1=O
[A] true

[Q] Same thing, different compound: CCOc1ccccc1NC(=O)N1CCCC1CS(=O)(=O)c1ccccc1 (stereo unspecified)
[A] true

[Q] Same thing, different compound: Nc1ncnc2c1ncn2C1OC(CO)C(O)C1O (stereo unspecified)
[A] true

[Q] Same thing, different compound: CC(C)Sc1ccc(CC(=O)NC2CCN(c3cc4c(nn3)CCCC4)CC2)cc1
[A] true

----------
- Test system: RAW-Dual (murine macrophage reporter line)
- Protocol Notes: IRF reporter (Lucia luciferase) activity fold change vs agonist alone; higher = enhanced IRF activity
- Measurement Setup: modulator concentration 10 µM; agonist: LPS 0.1 ug/mL
Assay Metric: IRF reporter

NCCCCC(=O)O.O=C1c2ccccc2C(=O)C1[N+](=O)[O-]; 1.13
COc1ccc(C2Oc3cc(OC)cc(OC)c3CC2O)cc1 (stereo unspecified); 1.12
Cc1ccc(-c2ncnn2-c2ccc(Cl)cc2)cc1; 1.26
CCCCOc1ccc(S(=O)(=O)NCCCn2ccnc2)cc1; 1.84
O=C(Nc1ccc(NS(=O)(=O)c2ccc(Cl)cc2)cc1)c1ccccc1; 1.26

[Q] Form field: reported IRF reporter of COc1ccc(C2C3=C(CC(c4ccccc4)CC3=O)Nc3ccccc3N2C(=O)C(C)C)cc1OC (stereo unspecified)
[A] 1.56

[Q] Same thing, different compound: COc1ccc(NC(=O)c2cn(-c3cc(N4CCSCC4)ncn3)cn2)cc1
[A] 1.13

----------
- Tested on: RAW-Dual (murine macrophage reporter line)
- Protocol Notes: IRF reporter (Lucia luciferase) activity fold change vs agonist alone; higher = enhanced IRF activity
- Measurement Setup: modulator concentration 10 µM; agonist: LPS 0.1 ug/mL
Assay Metric: IRF reporter

Below: 4 compounds and their reported IRF reporter.
CC(=NOCON=C(C)c1ccc(Cl)c(Cl)c1)c1ccc(Cl)c(Cl)c1; 1.38
CC(C)(C)CC(=O)Nc1nc2ccc(S(C)(=O)=O)cc2s1; 0.831
COc1ccc(-c2[nH]c3ccccc3c2SCCNC(=O)c2ccccc2)cc1; 1.42
CN(C/C=C/C#CC(C)(C)C)Cc1cccc2ccccc12; 1.24

[Q] Form field: reported IRF reporter of N#Cc1cc(OC2CCSC2)nc2ccccc12 (stereo not given)
[A] 0.959

[Q] Same thing, different compound: O=C(O)c1coc(CNC(=O)c2cocc2C(=O)O)c1
[A] 1.51

----------
- System: RAW-Dual (murine macrophage reporter line)
- Protocol Notes: IRF reporter (Lucia luciferase) activity fold change vs agonist alone; higher = enhanced IRF activity
- Measurement Setup: modulator concentration 10 µM; agonist: MPLA […]
Listed here: items and their measured IRF reporter.

[Q] Form field: reported IRF reporter of S=c1n(CN2CCOCC2)nc(-c2ccccc2Br)n1-c1ccccc1
[A] 1.22

[Q] Same thing, different molecule: Cc1cnc(Nc2ccc(OCCN3CCCC3)cc2)nc1Nc1cccc(S(=O)(=O)NC(C)(C)C)c1
[A] 0.064

[Q] Same thing, different molecule: Cc1ccsc1C(=CCCN1CCC[C@@H](C(=O)O)C1)c1sccc1C
[A] 0.732

[Q] Same thing, different molecule: COc1ccc(CN2CCN(C(c3ccc(F)cc3)c3ccc(F)cc3)CC2)c(OC)c1OC.Cl.Cl
[A] 1.17

[Q] Same thing, different molecule: CCN(CC)Cc1cc(Nc2ccnc3cc(Cl)ccc23)ccc1O.Cl.Cl.O.O
[A] 1.16

[Q] Same thing, different molecule: COc1ccc2ccccc2c1-c1nnc2ccc(C(F)(F)F)cn12
[A] 1.07

[Q] Same thing, different molecule: CCN1C(=O)C(=Cc2cc(Br)ccc2OCCOc2ccccc2Cl)SC1=S
[A] 1.18

[Q] Same thing, different molecule: COc1ccccc1C(=O)Nc1cnc(N2CCN(c3ccccn3)CC2)nc1
[A] 1.12

[Q] Same thing, different molecule: CC(C)NC(=O)CCn1c(=O)c2cc(Cl)ccc2n2c(SCc3ccc(F)cc3)nnc12
[A] 1.41

[Q] Same thing, different molecule: Cc1c(C#N)sc2nc(-c3ccccc3)nc(N=CN(C)C)c12
[A] 1.03

[Q] Same thing, different molecule: CN(C)c1cncc(OC2CCN(S(C)(=O)=O)C2)n1 (configuration not stated)
[A] 0.923

[Q] Same thing, different molecule: CC1=CCCC(=O)C2CC(C)(C)C2CC1 (configuration not stated)
[A] 1.05

[Q] Same thing, different molecule: CC1=C(C(=O)OC2CCCCC2)C(c2ccc(N(C)C)cc2)C2=C(CC(C)(C)CC2=O)N1 (configuration not stated)
[A] 1.04

----------
- Test system: RAW-Dual (murine macrophage reporter line)
- Protocol Notes: viability score (confluency relative to resting cells, overnight) (fraction); higher = more viable, active = viable (0.7 or more)
- Measurement Setup: modulator concentration 10 µM
Assay Metric: viability score
Provide a numeric answer; units are not to be included.

O=C(O)c1cc([N+](=O)[O-])c(Nc2cccc3ccccc23)c([N+](=O)[O-])c1; 1.01

[Q] Form field: reported viability score of NC(=O)c1ccc(N2CCOCC2)c([N+](=O)[O-])c1
[A] 0.993

[Q] Same thing, different molecule: Cl.Nc1ccn([C@@H]2O[C@H](CO)[C@@H](O)[C@@H]2O)c(=O)n1
[A] 0.579

----------
- Tested on: RAW-Dual (murine macrophage reporter line)
- Protocol Notes: viability score (confluency relative to resting cells, overnight) (fraction); higher = more viable, active = viable (0.7 or more)
- Measurement Setup: modulator concentration 10 µM
Assay Metric: viability score
Provide a numeric answer; units are not to be included.

Below: 4 compounds and their reported viability score.
COc1ccc2cc(Br)ccc2c1CC(=O)O; 1.02
Cc1ccc(Nc2nc(Cl)nc(Nc3ccc(C(C)C)cc3)n2)cc1; 1.03
CC(C)(C)CC(=O)Nc1nc2ccc(S(C)(=O)=O)cc2s1; 0.948
CCNC(=O)CCC/C=C\C[C@@H]1[C@@H](/C=C/C(O)CCc2ccccc2)[C@@H](O)C[C@@H]1O (stereo not given in full); 1.01

[Q] Form field: reported viability score of COc1ccc(NCN2C(=O)c3ccccc3C2=O)c(OC)c1
[A] 0.991

[Q] Same thing, different compound: Cc1ccc(C(=O)c2cc(O)c(O)c([N+](=O)[O-])c2)cc1
[A] 0.995

[Q] Same thing, different compound: C#Cc1cccc(Nc2ncnc3cc4c(cc23)OCCOCCOCCO4)c1
[A] 1.02

[Q] Same thing, different compound: COCC(C)NC(=O)c1ccc(Cl)c(Cl)c1 (stereo not given)
[A] 0.997

[Q] Same thing, different compound: COC(=O)C1=CN(CC2CCCO2)C=C(C(=O)OC)C1c1ccc(Cl)cc1 (stereo not given)
[A] 1

[Q] Same thing, different compound: CCOC(=O)CC(C(=O)OCC)P(=O)(c1ccccc1)c1ccccc1 (stereo not given)
[A] 1.01

----------
- Tested on: RAW-Dual (murine macrophage reporter line)
- Protocol Notes: NF-kB reporter (SEAP) activity fold change vs agonist alone; higher = enhanced NF-kB activity
- Measurement Setup: modulator concentration 10 µM; agonist: CpG ODN 1826 0.5 ug/mL
Label rule, in plain words: NF-kB reporter of 0.8 and up is Criterion met, under 0.8 is Criterion not met.

Solved cases (8 shown):
CCCCCN(CCCCC)C(=O)C(CCC(=O)[O-])NC(=O)c1ccc(Cl)c(Cl)c1 (stereo not drawn); Criterion met
CN1CCN(C(=O)CN2C(=O)c3cccc4cccc(c34)C2=O)CC1; Criterion met
CCCC1=NN2C(=N)C(=Cc3cccc(OCc4ccccc4F)c3)C(=O)N=C2S1; Criterion met
CC(C)n1cnc(S(=O)(=O)N2CCC(S(=O)(=O)c3nccn3C)CC2)c1; Criterion not met
CC(=O)Nc1ccc(C(=O)Nc2ccc(Cl)cn2)cc1; Criterion met
O=C(NC1CCCCC1)c1cccc(C(F)(F)F)c1; Criterion met
C=CCc1ccc(O)c(OC)c1; Criterion met
O=c1c(O)c(-c2cc(O)c(O)c(O)c2)oc2cc(O)cc(O)c12; Criterion met

[Q] Please check the record COc1ccc(-n2c(C)c([N+](=O)[O-])c3ccc(O)cc32)cc1 and state if its NF-kB reporter is at or above 0.8.
[A] Criterion met

[Q] Same thing, different compound: CC(Nc1ccc(N)cc1)=C1C(=O)c2ccccc2C1=O
[A] Criterion met

[Q] Same thing, different compound: Cc1ccc(-n2ncc3c(Nc4cccc(C)c4)ncnc32)cc1
[A] Criterion met
